Read-out: serum amyloid A (SAA), SAA1 (gene 6288)
Experiment: BSK_CASM3C_SAA: BioMAP Diversity Plus: CASM3C Assay for serum amyloid A (SAA) Biomarker Activity (AID 2283049);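 note: SAA protein level quantified by ELISA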
Details: primary human coronary artery smooth muscle cells; actives raise or lower the signal
Active and inactive are the calls of the source. Rule for the calls: active = hit-call score of the fitted dose curve at least 0.9, where 1 is the maximum; inactive = score below 0.9.
Valid outcomes are listed here; reply with one: label 1 = active, label 0 = inactive

Example entries begin here.
C=C(C)C(=O)OCCC(F)(F)C(F)(F)C(F)(F)C(F)(F)C(F)(F)C(F)(F)C(F)(F)C(F)(F)F : label 0
CCOC(=O)CCCCCCCCC(=O)OCC : label 0
C=C1CC/C=C(\C)CC[C@@H]2[C@@H]1CC2(C)C : label 0
CC(C)CCCC(C)(C)O : label 0

Switching to the query record.
Entry CC=CC(=O)C1=C(C)C=CCC1(C)C : call = ?
label 0
